Experiment: Viability qHTS for spleen associated tyrosine kinase inhibitor (SYKi) naive MV4-11 cells (AID 1963823); also: nearly all actives have a fitted effect of over 40% in size; also: potency is read from the fitted curve at half-maximal effect
Settings: MV4-11 AML viability, CellTiter-Glo luminescence, 72 h; series mostly up to 45 µM
Inconclusive results are not listed. Calls of active or inactive are those of the source. Calls follow the shape of the dose curve; as a rule, active = well fitted cell-killing curve with a large enough effect; inconclusive = small, poorly fitted or top-dose-only effect, or effect the other way; inactive = no such curve, though single readings can be large or run the other way.
readout_label: Potency

INSERT INTO measurements (compound, result) VALUES
  ('C=C1CN(Cc2ccc(C(=O)Nc3ccccc3N)cc2)C(=O)c2ccccc21', '651 nM (active)'),
  ('O=S1(=O)CCN(Cc2cc(NCC3CCOCC3)c3[nH]c(-c4ccccc4)cc3c2)CC1', 'inactive'),
  ('O=C1NC(=O)C(c2c[nH]c3ccccc23)=C1c1c[nH]c2ccccc12', '1860 nM (active)'),
  ('CC(C)(CO)[C@@H](O)C(=O)NCCC(=O)O', 'inactive');

Please examine the following record next.
Output measured Potency for this item: CC(C)C(NC(=O)c1ccc2ccccc2n1)C(=O)NC(CC(=O)O)C(=O)COc1c(F)cccc1F (stereo not given)
inactive

###

Test: Quantitative highthroughput screen to assess conditional lethalithy of P12 Ichikawa cells grown in RPMI1640 with untreated serum (RPMI+s) (AID 1963881);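 also: 100% = DMSO wells and 0% = empty wells without cells; nearly all actives have a fitted effect of over 35% in size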
Conditions: ATP luminescence, 48 h; viability; series mostly up to 45.8 µM
Records with an inconclusive call do not appear. Active and inactive are the calls of the source. The call rests on the fitted dose curve; in most records, active means well fitted cell-killing curve with a large enough effect; inconclusive means small, poorly fitted or top-dose-only effect; inactive means flat fitted curve, though single readings scatter.
Please reply with one of these outcomes: class 1 (active), class 0 (inactive)

INSERT INTO assay_data (compound, class_name) VALUES
  ('O=NN(CCCl)C(=O)NCCCl', 'class 0');

Outcome logged for "CO[C@@H]1[C@@H](OC(N)=O)[C@@H](O)[C@H](Oc2ccc3c(O)c(NC(=O)c4ccc(O)c(CC=C(C)C)c4)c(=O)oc3c2C)OC1(C)C" in this assay:
class 0

Recorded test outcome, item "Cc1cc2c(cc1C1(c3ccc(C(=O)O)cn3)CC1)C(C)(C)CCC2(C)C"
class 0

Which outcome did this test record for the compound "CC[C@@H]1C=C(C)C[C@H](C)C[C@H](OC)[C@H]2O[C@@](O)(C(=O)C(=O)N3CCCC[C@@H]3C(=O)O[C@H](C(C)=C[C@@H]3CC[C@H](Cl)[C@H](OC)C3)[C@H](C)[C@@H](O)CC1=O)[C@H](C)C[C@H]2OC" ?
class 0

Could you kindly confirm the outcome this assay logged for O=C1NC(O)CCN1[C@@H]1O[C@H](CO)[C@H](O)[C@H]1O (some centres undefined) ?
class 0

###

Experiment: Quantitative highthroughput screen to assess conditional lethalithy of P12 Ichikawa cells grown in Human Plasma-Like Medium with dialyzed fetal bovine serum (HPLM+ds) (AID 1963879); also: nearly all actives have a fitted effect of over 35% in size; also: potency is read from the fitted curve at half-maximal effect
Conditions: ATP luminescence, 48 h; viability; series mostly up to 45.8 µM
Records with an inconclusive call do not appear. Active and inactive are the calls of the source. Calls come from the whole dose curve; as a rule, active = well fitted cell-killing curve with a large enough effect; inconclusive = small, poorly fitted or top-dose-only effect; inactive = flat fitted curve, though single readings scatter.
readout_label: Potency

Answered examples (4):
INSERT INTO results (compound, result) VALUES
  ('Cc1ncc([N+](=O)[O-])n1CCO', 'inactive'),
  ('Cc1cc(SCc2sc(-c3ccc(C(F)(F)F)cc3)nc2C)ccc1OCC(=O)O', 'inactive'),
  ('O=C(O)c1nc(=O)[nH]c(=O)[nH]1', 'inactive'),
  ('Nc1ccn([C@@H]2C(F)=C(CO)[C@@H](O)[C@H]2O)c(=O)n1', '1660 nM (active)');

For the compound "COC1=C(OC)C(=O)C(CC=C(C)CCC=C(C)CCC=C(C)CCC=C(C)CCC=C(C)CCC=C(C)CCC=C(C)CCC=C(C)CCC=C(C)CCC=C(C)C)=C(C)C1=O" , give its measured Potency value.
inactive

Supply recorded Potency for "C[C@H](NC(=O)c1sccc1OCc1ccc(Cl)cc1)c1ccccc1" here.
inactive

Quickly give me recorded Potency for CN1CC(=O)N2C(Cc3c([nH]c4ccccc34)[C@H]2c2ccc3c(c2)OCO3)C1=O (stereo not given in full)
inactive

Quick one: give measured Potency for "COc1ccc(OC)c(-c2nnc3ccc(-c4ccc(OC)c(O[C@@H]5CCOC5)c4)nn23)c1"
inactive

Read off the recorded Potency for "O=C(O)[C@@H](c1ccc(OCc2ccc3ccccc3n2)cc1)C1CCCC1"
inactive

Provide only the value of recorded Potency for "CC(C)(C)OC(=O)Nc1ccc(-c2cc(C(=O)NCCCCCCC(=O)NO)no2)cc1"
2640 nM (active)

Quickly give me recorded Potency for "O=C1c2c(O)cccc2[C@@H]([C@@H]2O[C@H](CO)[C@@H](O)[C@H](O)[C@H]2O)c2cc(CO)cc(O)c21"
inactive
